assay.endpoint: melting point

Illustrative cases are given below, each with its answer.
- smiles.input: "O=C(CCl)Nc1ccc2c(c1NC(=O)c1ccccc1Cl)C(=O)c1ccccc1C2=O"
  melting point: "193 to 194 °C"
- smiles.input: "O=C(O)Cn1c(=O)sc2cc(Br)c(Cl)cc21"
  melting point: "249 to 252 °C"
- smiles.input: "Nc1cnccc1N1CCc2ccccc21"
  melting point: "89 °C"

Lookup result for O=C(c1cccnc1)N1CCC(c2ccccc2F)=N1 ; measured melting point: 89 to 91 °C

For record CCCCCS(=O)(=O)NC(=O)/C=C/c1ccc(OCCOC)cc1Oc1ncc(C(F)(F)F)cc1Cl the listed melting point is 123 to 125 °C
